measurement.notes: A CellTox Green Cytotoxicity Assay to monitor cytotoxicity in HepG2 cells - 24 hour (AID 1224878); also: nearly all actives have a fitted effect of over 45% in size
condition.summary: CellTox Green fluorescence; series mostly up to 76.8 µM
Results filed as inconclusive are left out. Calls of active or inactive are those of the source. Calls follow the shape of the dose curve; as a rule, active = well fitted activation curve with a large enough effect in the repeat runs; inconclusive = weak or mixed curves; inactive = flat fitted curve, though single readings scatter.
Labels: active, inactive

# molecule, category
data = [
    ("CCC(C)(C)C(=O)OC1=C(c2ccc(Cl)cc2Cl)C(=O)OC12CCCCC2", "inactive"),
    ("CN(CCCC(O)c1cccnc1)N=O (stereo not drawn)", "inactive"),
    ("O=[N+]([O-])O.O=[N+]([O-])O.[Cd]", "active"),
    ("CCCSP(=O)(OCC)SCCC", "inactive"),
    ("Fc1ccc(Oc2ccnc3cc(Cl)cc(Cl)c23)cc1", "inactive"),
    ("COS(=O)(=O)c1ccc(C)cc1", "inactive"),
    ("CC1(C)C(/C=C(\\Cl)C(F)(F)F)C1C(=O)OC(C#N)c1cccc(Oc2ccccc2)c1 (stereo not drawn)", "inactive"),
    ("N#C/C=C/c1ccccc1", "inactive"),
    ("COP(=O)(CCC(=O)NCO)OC", "inactive"),
    ("O=[N+]([O-])c1ccc(Oc2ccc(C(F)(F)F)cc2[N+](=O)[O-])cc1", "inactive"),
    ("CC(C)C1CCC(Cc2ccc(Cl)cc2)C1(O)Cn1cncn1 (stereo not drawn)", "active"),
    ("CCOC(=O)OC1=C(c2cc(C)ccc2C)C(=O)NC12CCC(OC)CC2 (stereo not drawn)", "inactive"),
    ("CC(c1ccc(O)cc1)c1ccc(O)cc1", "inactive"),
]
